Molecular target: Rap guanine nucleotide exchange factor 3 (Homo sapiens)
Test: Confirmatory qHTS for antagonist of cAMP-regulated guanine nucleotide exchange factor 3 (EPAC1) (AID 1645880); further: nearly all actives have a fitted effect of over 55% in size; further: potency means the concentration at half of the fitted maximal effect
Conditions: EPAC1 Rap1B-BODIPY-GDP exchange, fluorescence
Results filed as inconclusive are left out. Calls of active or inactive are those of the source. The call rests on the fitted dose curve; in most records, active means well fitted inhibition curve with a large enough effect; inconclusive means small, poorly fitted or top-dose-only effect; inactive means no such curve, though single readings can be large or run the other way.
reported-metric: Potency

Worked examples follow.
>  <compound>
COc1ccc(C(=O)Nc2ccc(NC(=O)c3cccs3)cc2)cc1OC

>  <meas-value>
inactive

$$$$
>  <compound>
COC(=O)c1ccc2nc(-c3ccc(OC)c(OC)c3)c(CC3CCCCC3)n2c1

>  <meas-value>
inactive

$$$$
>  <compound>
COc1ccc(N2C(=O)CSC2c2ccccc2F)c(OC)c1 (configuration not stated)

>  <meas-value>
inactive

$$$$
>  <compound>
COc1ccc(OC)c(NC(=O)C2(C)CCN2Cc2ccsc2)c1 (configuration not stated)

>  <meas-value>
inactive

$$$$

Recall and state the measured Potency for "CCn1cc(SCC(=O)NCc2ccc3c(c2)OCO3)c2ccccc21" .
inactive

Recall and state the measured Potency for "O=C(NC1CCCC1)c1cccc2c1C(=O)c1ccc(N3CCCCC3)cc1S2(=O)=O" .
inactive

Recall and state the measured Potency for "COC(=O)c1ccc(COc2ccc(/C=C/C(=O)c3ccc(OC)c(CSCC(=O)O)c3)cc2OC)cc1" .
37.9 µM (active)

Recall and state the measured Potency for "N=c1c(S(=O)(=O)c2ccc(Br)cc2)cc2c(=O)n3ccccc3nc2n1Cc1ccccc1" .
50.1 µM (active)

Recall and state the measured Potency for "C[n+]1ccc(/C=C/c2c[nH]c3ccccc23)cc1" .
inactive

Recall and state the measured Potency for CCCS(=O)(=O)NC(=O)C1(C)CCN(C(=O)c2cccc(OC(F)(F)F)c2)C1 (configuration not stated) .
inactive

Recall and state the measured Potency for "CC(=O)Nc1ccc(/C(C)=N/NC(=O)c2ccc(COc3ccccc3Cl)o2)cc1" .
inactive

Recall and state the measured Potency for "Cc1cc(C)c(Nc2cc(S(=O)(=O)O)c(N)c3c2C(=O)c2ccccc2C3=O)c(C)c1" .
30.1 µM (active)

Recall and state the measured Potency for "Cc1nc2c(C(=O)NCCC3=CCCCC3)c[nH]n2c(=O)c1Cl" .
75.7 µM (active)

Recall and state the measured Potency for "COc1ccc(Br)cc1/C=N/Nc1ccc(S(=O)(=O)Nc2ccccc2C(=O)O)cc1[N+](=O)[O-]" .
25.1 µM (active)

Recall and state the measured Potency for "COc1ccc(-c2csc3ncn(-c4ccc(C)cc4)c(=O)c23)cc1OC" .
inactive

Recall and state the measured Potency for "Cn1cc([C@]2(O)C(=O)Nc3ccc(OC(F)(F)F)cc32)c2ccccc21" .
inactive

Recall and state the measured Potency for "O=C(c1ccco1)N(Cc1cccs1)c1ccc(F)cc1" .
inactive

Recall and state the measured Potency for "CCCCNC(=O)c1cc(-c2ccc3c(c2)OCO3)on1" .
inactive

###

Test: Quantitative high throughput screen for delayed death inhibitors of the malarial parasite plastid, 48 hour incubation (AID 488752); further: nearly all actives have a fitted effect of over 65% in size
Details: Plasmodium falciparum growth; series mostly up to 28.7 µM
Results filed as inconclusive are left out. The source made the active and inactive calls. The call rests on the fitted dose curve; in most records, active means well fitted inhibition curve with a large enough effect; inconclusive means small, poorly fitted or top-dose-only effect, or effect the other way; inactive means flat fitted curve, though single readings scatter.
Hello, when you answer, please use one of the following outcomes: active, inactive

Please let me know the test result on file for "O=S(=O)(O)C1CCNCC1" .
inactive

Please let me know the test result on file for "Cc1cc(N)c2ccccc2[n+]1CCCCCCCCCCCCCC[n+]1c(C)cc(N)c2ccccc21" .
active

Please let me know the test result on file for CC(=O)SC1CC2=CC(=O)CC[C@]2(C)C2CC[C@@]3(C)[C@@H](CC[C@@]34CCC(=O)O4)C12 (stereo partly drawn) .
inactive

Please let me know the test result on file for CC[C@H](C)C(=O)O[C@H]1CCC=C2C=C[C@H](C)[C@H](CC[C@@H]3C[C@H](O)CC(=O)O3)C21 (stereo partly drawn) .
inactive

Please let me know the test result on file for COc1cc2c(cc1O)CCC1C2CC[C@]2(C)[C@@H](O)CC[C@@H]12 (stereo partly drawn) .
inactive

Please let me know the test result on file for "CCCCN1CCC(COC(=O)c2cc(Cl)c(N)c3c2OCCO3)CC1" .
inactive

Please let me know the test result on file for Cc1c(C)c2c(c(C)c1O)CCC(C)(CN1CCN(c3cc(N4CCCC4)nc(N4CCCC4)n3)CC1)O2 (stereo not drawn) .
active

Please let me know the test result on file for C[C@H]1c2cccc(O)c2C(O)=C2C(=O)[C@]3(O)C(O)=C(C(N)=O)C(=O)C(N(C)C)[C@@H]3[C@@H](O)C21 (stereo partly drawn) .
active

###

Assay: Cell Viability - LYMP2-011 (AID 969);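 further: cells exposed to compound for 24 hours; nearly all actives have a fitted effect of over 60% in size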
Details: LYMP2-011 lymphoblastoid cells viability; series mostly up to 92.2 µM
Description: NIH Chemical Genomics Center [NCGC] NIH Molecular Libraries Screening Centers Network [MLSCN] National Institutes of Environmental Health Sciences [NIEHS] National Toxicology Program [NTP] We have developed a 1536-well cell-based assay for quantitative high throughput screening (qHTS) against a number of cell lines to determine in vitro cytotoxicity of small molecules. […] 8. Detection; Luminescence; Viewlux plate reader […]
Inconclusive results are not listed. Calls of active or inactive are those of the source. Calls come from the whole dose curve; as a rule, active = well fitted cell-killing curve with a large enough effect; inconclusive = small, poorly fitted or top-dose-only effect; inactive = flat fitted curve, though single readings scatter.
Hello, when you answer, please use one of the following outcomes: active, inactive

Please let me know the test result on file for CCC(C)c1ccccc1O (stereo not drawn) .
inactive

Please let me know the test result on file for "CC(=O)OC/C=C(\C)CCC=C(C)C" .
inactive

Please let me know the test result on file for "CCCCCCCCCCCC(=O)O" .
inactive

Please let me know the test result on file for "Nc1ccc(Cl)cc1Cl" .
inactive

Please let me know the test result on file for "Cc1c(N=C=O)cccc1N=C=O" .
inactive

Please let me know the test result on file for "Clc1cc(Cl)c(Cl)c(Cl)c1Cl" .
inactive

Please let me know the test result on file for "CCCCCCCCCCCCCC(=O)O" .
inactive

Please let me know the test result on file for "Clc1cc(Cl)c(Cl)cc1Cl" .
inactive

Please let me know the test result on file for "Cc1cccc([N+](=O)[O-])c1C" .
inactive

Please let me know the test result on file for NC1=NC(S)C2N=CN=C2N1 (stereo not drawn) .
active

Please let me know the test result on file for "Cc1ccccc1C" .
inactive

Please let me know the test result on file for "ClCCCl" .
inactive

Please let me know the test result on file for "COCC(=O)O" .
inactive

Please let me know the test result on file for "Nc1ccc(S(=O)(=O)O)cc1" .
inactive

Please let me know the test result on file for "CCO" .
inactive

Please let me know the test result on file for "COC(=O)c1ccc(C=O)cc1" .
inactive

Please let me know the test result on file for "C=Cc1ccccc1Cl" .
inactive

Please let me know the test result on file for "C1OCOCO1" .
inactive

Please let me know the test result on file for "CC1=C2[C@H](/C=C(\C)C(=O)O)CC[C@@H](C)[C@H]2CC1" .
inactive

Please let me know the test result on file for "CCCCOCCO" .
inactive

Please let me know the test result on file for "O=C(O)c1ccc(O)cc1O" .
inactive

Please let me know the test result on file for C=C(C)C1CC=C(C)C(O)C1 (stereo not drawn) .
inactive

Please let me know the test result on file for CCCCC(CC)CN (stereo not drawn) .
inactive

Please let me know the test result on file for "O=[N+]([O-])c1cccc(Cl)c1Cl" .
inactive

Please let me know the test result on file for "c1ccc2scnc2c1" .
inactive

Please let me know the test result on file for "Cc1ccc([N+](=O)[O-])cc1N" .
inactive

Please let me know the test result on file for "c1ccc2c(c1)c1cccc3ccc4cccc2c4c31" .
inactive

Please let me know the test result on file for "Cc1ccc(N)c([N+](=O)[O-])c1" .
inactive

Please let me know the test result on file for "O=NO" .
inactive

Please let me know the test result on file for "O=C1c2ccccc2C(=O)C1c1ccc2ccccc2n1" .
inactive

Please let me know the test result on file for "C=CCOC(=O)c1ccccc1C(=O)OCC=C" .
inactive

Please let me know the test result on file for "O=C(/C=C/c1ccc(O)c(O)c1)O[C@@H](C(=O)O)[C@@H](OC(=O)/C=C/c1ccc(O)c(O)c1)C(=O)O" .
inactive

Please let me know the test result on file for "CCO[Si](CCCN)(OCC)OCC" .
inactive

###

Test system: PC26
Assay: qHTS profiling for inhibitors of Plasmodium falciparum proliferation (AID 504749); further: nearly all actives have a fitted effect of over 60% in size
Details: P. falciparum in erythrocytes, SYBR Green DNA, 72 h; series mostly up to 28.7 µM
Records with an inconclusive call do not appear. Active and inactive are the calls of the source. Calls come from the whole dose curve; as a rule, active = well fitted inhibition curve with a large enough effect; inconclusive = small, poorly fitted or top-dose-only effect; inactive = flat fitted curve, though single readings scatter. Bridge positions count the residues as written; N and C are the ends. Square brackets hold non-standard residues; d marks the D form. Peptide text beside a SMILES is read from it. * marks the point of attachment. Octanoyl(6-Me) = CCC(C)CCCCC(=O)*; Dab = NCC[CH](N)C(=O)O
Hello, when you answer, please use one of the following outcomes: active, inactive

Please let me know the test result on file for CC1CCC(C(C)C)C(OC(=O)c2ccccc2O)C1 (stereo not drawn) .
inactive

Please let me know the test result on file for "CC(C)CN(C[C@@H](O)[C@H](Cc1ccccc1)NC(=O)O[C@H]1CCOC1)S(=O)(=O)c1ccc(N)cc1" .
inactive

Please let me know the test result on file for CC(=O)OC1CC2CCC1(C)C2(C)C (stereo not drawn) .
inactive

Please let me know the test result on file for "CN(C)CCCCCCN(C)C" .
inactive

Please let me know the test result on file for NC1=NC(S)C2N=CN=C2N1 (stereo not drawn) .
inactive

Please let me know the test result on file for "C1OCOCO1" .
inactive

Please let me know the test result on file for CCC(C)CCCCC(=O)NC(CCN)C(=O)NC(C(=O)NC(CCN)C(=O)NC1CCNC(=O)C(C(C)O)NC(=O)C(CCN)NC(=O)C(CCN)NC(=O)C(CC(C)C)NC(=O)C(Cc2ccccc2)NC(=O)C(CCN)NC1=O)C(C)O (stereo not drawn) ({Octanoyl(6-Me)}-[Dab]T[Dab][Dab][Dab]FL[Dab][Dab]T; lactam 4-C; configuration not given here) .
inactive

Please let me know the test result on file for CC(=O)O[C@@]12CO[C@@H]1C[C@H](O)[C@@]1(C)C(=O)[C@H](O)C3=C(C)[C@@H](OC(=O)C(O)[C@@H](NC(=O)OC(C)(C)C)c4ccccc4)C[C@@](O)([C@@H](OC(=O)c4ccccc4)[C@H]21)C3(C)C (stereo partly drawn) .
active
